# self-splicing fitness (ln) values compiled below
# assay_info: self-splicing fitness, log relative to wild type (ln ratio); higher = more splicing; Tetrahymena group I intron in knt gene, E. coli kanamycin selection, DiMSum; sequences stand for … in CUCUCU…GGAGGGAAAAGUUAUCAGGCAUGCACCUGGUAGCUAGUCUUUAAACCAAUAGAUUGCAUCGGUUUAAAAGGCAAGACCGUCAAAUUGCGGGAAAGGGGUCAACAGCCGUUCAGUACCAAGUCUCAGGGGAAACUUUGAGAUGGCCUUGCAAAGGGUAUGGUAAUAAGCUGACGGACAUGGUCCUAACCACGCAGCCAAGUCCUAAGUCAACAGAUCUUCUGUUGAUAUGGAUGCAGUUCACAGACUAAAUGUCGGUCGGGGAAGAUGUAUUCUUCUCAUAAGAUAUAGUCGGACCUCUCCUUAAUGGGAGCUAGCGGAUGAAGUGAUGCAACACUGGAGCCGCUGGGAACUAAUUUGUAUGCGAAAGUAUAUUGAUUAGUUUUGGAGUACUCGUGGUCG;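 note: selection with 25 µg/mL kanamycin versus none on LB agar overnight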
# particulars: 37 °C
Output spec: single numeric token, no unit.

Past entries and their recorded results:
- residue_codes: "AGGGAGCAAUAUUACGAGGG"
  self-splicing fitness (ln): -2.2
- residue_codes: "UAGCAGCAAUAUUACGUGAC"
  self-splicing fitness (ln): -3.45
- residue_codes: "GUCAAGCAAUAUUACGGGUA"
  self-splicing fitness (ln): -1.45

// next item, self-splicing fitness (ln) requested
Look up self-splicing fitness (ln): CUUUAGCAAUAUUACGAGCG
0.0581

---

# assay_info: self-splicing fitness, log relative to wild type (ln ratio); higher = more splicing; Tetrahymena group I intron in knt gene, E. coli kanamycin selection, DiMSum; sequences stand for … in CUCUCU…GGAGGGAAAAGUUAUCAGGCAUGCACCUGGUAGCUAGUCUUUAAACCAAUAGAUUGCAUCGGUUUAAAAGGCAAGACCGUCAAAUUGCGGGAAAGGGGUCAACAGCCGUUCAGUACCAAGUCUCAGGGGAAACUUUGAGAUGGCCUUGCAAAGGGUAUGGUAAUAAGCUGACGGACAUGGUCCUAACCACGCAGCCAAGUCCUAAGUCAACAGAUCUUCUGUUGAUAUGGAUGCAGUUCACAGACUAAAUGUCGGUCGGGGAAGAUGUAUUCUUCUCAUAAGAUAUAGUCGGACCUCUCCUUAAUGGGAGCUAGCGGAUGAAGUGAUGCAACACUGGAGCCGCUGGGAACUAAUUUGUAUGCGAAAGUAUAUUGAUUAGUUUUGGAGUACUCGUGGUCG
# particulars: 30 °C
# self-splicing fitness (ln) values compiled below

- residue_codes: "UUAGAGCAAUAUUACGCGUA"
  self-splicing fitness (ln): -1.59

Look up self-splicing fitness (ln): CAUAAGCAAUAUUACGUAAU
-4.04

Look up self-splicing fitness (ln): CCAUAGCAAUAUUACGACCA
-2.52

Look up self-splicing fitness (ln): ACCAAGCAAUAUUACGGACG
-1.09

---

# self-splicing fitness (ln) values compiled below
# assay_info: self-splicing fitness, log relative to wild type (ln ratio); higher = more splicing; Tetrahymena group I intron in knt gene, E. coli kanamycin selection, DiMSum; sequences stand for … in CUCUCU…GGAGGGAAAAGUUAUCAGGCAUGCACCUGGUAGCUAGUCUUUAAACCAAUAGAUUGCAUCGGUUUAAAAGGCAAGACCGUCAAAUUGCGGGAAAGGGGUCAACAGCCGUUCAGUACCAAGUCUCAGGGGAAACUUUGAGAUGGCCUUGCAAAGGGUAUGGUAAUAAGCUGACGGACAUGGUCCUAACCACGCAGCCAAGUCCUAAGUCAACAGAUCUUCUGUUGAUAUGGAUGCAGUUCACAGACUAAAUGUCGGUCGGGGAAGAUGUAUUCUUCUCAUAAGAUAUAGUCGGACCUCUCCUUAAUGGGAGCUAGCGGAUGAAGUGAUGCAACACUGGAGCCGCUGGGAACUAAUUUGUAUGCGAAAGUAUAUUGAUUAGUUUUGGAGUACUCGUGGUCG
# particulars: 37 °C
Output spec: single numeric token, no unit.

- residue_codes: "CGUAAGCAAUAUUACGCGGA"
  self-splicing fitness (ln): -1.84
- residue_codes: "UACUAGCAAUAUUACGUGGC"
  self-splicing fitness (ln): -2.91
- residue_codes: "ACAAAGCAAUAUUACGGCUG"
  self-splicing fitness (ln): -0.277
- residue_codes: "GGUAAGCAAUAUUACGAGCG"
  self-splicing fitness (ln): 0.512
- residue_codes: "CGUGAGCAAUAUUACGAUAU"
  self-splicing fitness (ln): -2.71

Look up self-splicing fitness (ln): CACCAGCAAUAUUACGAGCU
-3.55

Look up self-splicing fitness (ln): GAGAAGCAAUAUUACGGGAA
-1.24

Look up self-splicing fitness (ln): AUCUAGCAAUAUUACGCAAG
-1.29

Look up self-splicing fitness (ln): AUUAAGCAAUAUUACGAACA
-0.718

Look up self-splicing fitness (ln): AUGAAGCAAUAUUACGUGCA
0.364

Look up self-splicing fitness (ln): CUCCAGCAAUAUUACGCUAC
-2.75

Look up self-splicing fitness (ln): CCCUAGCAAUAUUACGUACG
-2.81

Look up self-splicing fitness (ln): CAUGAGCAAUAUUACGUAUG
-2.65

Look up self-splicing fitness (ln): CAACAGCAAUAUUACGUUAC
-2.44

Look up self-splicing fitness (ln): UCGAAGCAAUAUUACGCUAA
-2.07

Look up self-splicing fitness (ln): UACCAGCAAUAUUACGAUCU
-1.08

Look up self-splicing fitness (ln): CCUCAGCAAUAUUACGUCCU
-2.68

Look up self-splicing fitness (ln): GCCAAGCAAUAUUACGUCAG
-2.73

Look up self-splicing fitness (ln): AUUCAGCAAUAUUACGGAAU
-2.61

Look up self-splicing fitness (ln): UGACAGCAAUAUUACGUGUC
-2.98

Look up self-splicing fitness (ln): GACAAGCAAUAUUACGUUUA
-1.58

Look up self-splicing fitness (ln): AAUUAGCAAUAUUACGUCCA
-1.2

Look up self-splicing fitness (ln): AAACAGCAAUAUUACGUAUG
-1.31

Look up self-splicing fitness (ln): GCCAAGCAAUAUUACGACUC
0.136

Look up self-splicing fitness (ln): GCUUAGCAAUAUUACGACCG
-1.19
